test system: Staphylococcus aureus; assay: In vitro activity against MRSA (A27217; heterogeneous strain) by standard broth dilution method; format: functional; settings: Staphylococcus aureus; read-out: MIC
Readings of MIC for the listed molecules
Respond numerically; units are µg/mL and should not be typed.

Below: 5 molecules and their reported MIC.
>>> measured_number("C[N+]1(CC2=C(C(=O)[O-])N3C(=O)[C@@H](NC(=O)CSc4cc(Cl)ccc4Cl)[C@H]3SC2)C2CCCC1CC2 (some centres not stated)")
2
>>> measured_number("O=C(CSc1cc(Cl)ccc1Cl)N[C@@H]1C(=O)N2C(C(=O)[O-])=C(C[n+]3ccn4ccccc43)CS[C@H]12")
2
>>> measured_number("O=C(CSc1cc(Cl)ccc1Cl)N[C@@H]1C(=O)N2C(C(=O)[O-])=C(C[N+]34CCC(CC3)C(O)C4)CS[C@H]12 (some centres not stated)")
1
>>> measured_number("O=C(C[N+]12CCN(CC1)CC2)N[C@@H]1C(=O)N2C(C(=O)[O-])=C(CSc3cc(Cl)ccc3Cl)CS[C@H]12")
128
>>> measured_number("O=C(CSc1cc(Cl)ccc1Cl)N[C@@H]1C(=O)N2C(C(=O)[O-])=C(C[N+]34CCC(CC3)CC4)CS[C@H]12")
2

*Q* Answer with MIC of C[N+]1(CC2=C(C(=O)[O-])N3C(=O)[C@@H](NC(=O)CSc4cc(Cl)ccc4Cl)[C@H]3SC2)C2CCC1CC(=O)C2 (some centres not stated) measured for Staphylococcus aureus.
*A* 2

*Q* Report value: MIC, system: Staphylococcus aureus, molecule: NCC(=O)NC1C[N+]2(CC3=C(C(=O)[O-])N4C(=O)[C@@H](NC(=O)CSc5cc(Cl)ccc5Cl)[C@H]4SC3)CCC1CC2 (some centres not stated)
*A* 4

====

The molecules listed here are annotated with their MIC.
tested on: Staphylococcus aureus; experiment: In vitro activity against MRSA (A27223; homogeneous strain) by standard broth dilution method; assay type: functional; settings: Staphylococcus aureus; read-out: MIC
// return numeric value only (unit: µg/mL, not printed)

Some molecules with recorded MIC:
>>> measured_number("O=C(CSc1cc(Cl)ccc1Cl)N[C@@H]1C(=O)N2C(C(=O)[O-])=C(C[n+]3cccc4[nH]cnc43)CS[C@H]12")
2
>>> measured_number("C[N+]1(CC2=C(C(=O)[O-])N3C(=O)[C@@H](NC(=O)CSc4cc(Cl)ccc4Cl)[C@H]3SC2)[C@@H]2CC[C@H]1C[C@@H](O)C2 (stereo in doubt; 6r)")
2
>>> measured_number("O=C(CSc1cc(Cl)ccc1Cl)N[C@@H]1C(=O)N2C(C(=O)[O-])=C(C[n+]3ccc4c(O)cccc4c3)CS[C@H]12")
1
>>> measured_number("C[N+]1(CC2=C(C(=O)[O-])N3C(=O)[C@@H](NC(=O)CSc4cc(Cl)ccc4Cl)[C@H]3SC2)C2CCCC1CC2 (some centres not stated)")
2
>>> measured_number("O=C(CSc1cc(Cl)ccc1Cl)N[C@@H]1C(=O)N2C(C(=O)[O-])=C(C[N+]34CCC(CC3)C(O)C4)CS[C@H]12 (some centres not stated)")
1
>>> measured_number("C[N+]1(CC2=C(C(=O)[O-])N3C(=O)[C@@H](NC(=O)CSc4cc(Cl)ccc4Cl)[C@H]3SC2)C2CCC1CC(=O)C2 (some centres not stated)")
4
>>> measured_number("O=C(CSc1cc(Cl)ccc1Cl)N[C@@H]1C(=O)N2C(C(=O)[O-])=C(C[n+]3cccc4cc[nH]c43)CS[C@H]12")
2
>>> measured_number("NC(=O)c1ccc2n(cc[n+]2CC2=C(C(=O)[O-])N3C(=O)[C@@H](NC(=O)CSc4cc(Cl)ccc4Cl)[C@H]3SC2)c1")
2
>>> measured_number("O=C(CSc1cc(Cl)ccc1Cl)N[C@@H]1C(=O)N2C(C(=O)[O-])=C(C[n+]3ccn4ccccc43)CS[C@H]12")
4
>>> measured_number("NCC(=O)NC1C[N+]2(CC3=C(C(=O)[O-])N4C(=O)[C@@H](NC(=O)CSc5cc(Cl)ccc5Cl)[C@H]4SC3)CCC1CC2 (some centres not stated)")
4

*Q* Please tell me the measured MIC for O=C(C[N+]12CCN(CC1)CC2)N[C@@H]1C(=O)N2C(C(=O)[O-])=C(CSc3cc(Cl)ccc3Cl)CS[C@H]12 ; system: Staphylococcus aureus.
*A* 128

*Q* Please tell me the measured MIC for NCCC(=O)NC1C[N+]2(CC3=C(C(=O)[O-])N4C(=O)[C@@H](NC(=O)CSc5cc(Cl)ccc5Cl)[C@H]4SC3)CCC1CC2 (some centres not stated) ; system: Staphylococcus aureus.
*A* 4

====

test system: Staphylococcus aureus; assay: In vitro activity against MRSA (A27621; homogeneous strain) by standard broth dilution method; type: functional; details: Staphylococcus aureus; read-out: MIC
READOUT TYPE: MIC (µg/mL)
State the answer as a number, implicitly in µg/mL.

The examples below pair each entry with its known result.
>>> measured_number("O=C(CSc1cc(Cl)ccc1Cl)N[C@@H]1C(=O)N2C(C(=O)[O-])=C(C[n+]3cccc4cc[nH]c43)CS[C@H]12")
2
>>> measured_number("O=C(CSc1cc(Cl)ccc1Cl)N[C@@H]1C(=O)N2C(C(=O)[O-])=C(C[n+]3ccc4c(O)cccc4c3)CS[C@H]12")
1
>>> measured_number("C[N+]1(CC2=C(C(=O)[O-])N3C(=O)[C@@H](NC(=O)CSc4cc(Cl)ccc4Cl)[C@H]3SC2)C2CCC1CC(=O)C2 (stereo not given in full)")
4
>>> measured_number("O=C(CSc1cc(Cl)ccc1Cl)N[C@@H]1C(=O)N2C(C(=O)[O-])=C(C[N+]34CCC(CC3)C(O)C4)CS[C@H]12 (stereo not given in full)")
1

Please find the next molecule below.
*Q* Tell me measured MIC for O=C(CSc1cc(Cl)ccc1Cl)N[C@@H]1C(=O)N2C(C(=O)[O-])=C(C[n+]3ccc4ccccc4c3)CS[C@H]12 please.
*A* 2
